Biological target: full-length beta-Catenin (Uniprot ID P35222) (Homo sapiens, UniProt P35222)
Construct: 10 nM full-length beta-Catenin (Uniprot ID P35222)
Sequence (P35222 whole entry): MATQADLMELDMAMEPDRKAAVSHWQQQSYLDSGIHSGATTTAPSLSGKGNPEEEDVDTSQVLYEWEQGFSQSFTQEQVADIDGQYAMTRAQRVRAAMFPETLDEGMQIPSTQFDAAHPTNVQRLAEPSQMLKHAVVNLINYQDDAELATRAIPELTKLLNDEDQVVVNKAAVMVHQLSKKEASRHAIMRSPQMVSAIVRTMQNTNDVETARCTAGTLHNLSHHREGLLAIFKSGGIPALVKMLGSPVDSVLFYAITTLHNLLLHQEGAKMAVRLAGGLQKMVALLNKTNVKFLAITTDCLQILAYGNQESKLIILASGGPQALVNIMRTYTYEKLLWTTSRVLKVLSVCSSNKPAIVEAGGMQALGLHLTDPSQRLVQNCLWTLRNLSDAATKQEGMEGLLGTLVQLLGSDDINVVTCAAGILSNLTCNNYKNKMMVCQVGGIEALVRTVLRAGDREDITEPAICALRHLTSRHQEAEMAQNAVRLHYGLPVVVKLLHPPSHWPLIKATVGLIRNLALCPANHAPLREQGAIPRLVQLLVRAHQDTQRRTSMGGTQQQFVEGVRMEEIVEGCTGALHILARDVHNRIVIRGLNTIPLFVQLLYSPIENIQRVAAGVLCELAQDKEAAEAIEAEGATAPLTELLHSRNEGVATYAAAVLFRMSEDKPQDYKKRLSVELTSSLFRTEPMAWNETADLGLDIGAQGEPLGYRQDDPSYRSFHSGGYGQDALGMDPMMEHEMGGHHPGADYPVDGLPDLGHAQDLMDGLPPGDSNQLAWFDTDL
Experiment: Fluorescence polarization IC50 (beta-catenin / 5FAM-TCF4 10-53 competition)
Format: binding
Settings: fluorescence polarization; read-out: beta-Catenin FP IC50
ASSAY_ENDPOINT: pIC50
// pIC50 here means minus log10 of the molar concentration (mol/L)

Query: What pIC50 value was documented for this compound, CC(=O)N1CCC[C@]12CC=CCCCC1(CCCC=CCCCOC(=O)N3CC[C@@](C(=O)N[C@@H](Cc4ccccc4Cl)C(=O)N[C@@H](Cc4csc5ccccc45)C(=O)N[C@@H](CC(C)C)C(N)=O)(C3)NC(=O)[C@H]([C@@H](C)O)NC(=O)[C@H](Cc3ccccc3)NC(=O)[C@H](C)NC(=O)[C@H](CCCCNC(C)C)NC(=O)[C@H](CC(=O)O)NC(=O)[C@H](CC(=O)O)NC1=O)NC(=O)[C@H](CC(C)(C)C)NC(=O)[C@H](CC(=O)O)NC2=O (stereo partly drawn) ?
Result: 7.89

Query: Subsequent entry: CC(=O)N1CCC[C@]12CC=CCCCC1(CCCC=CCOC(=O)N3CC(C(=O)N[C@@H](Cc4ccsc4)C(=O)N[C@@H](Cc4csc5ccccc45)C(=O)N[C@@H](CCC(N)=O)C(N)=O)(C3)NC(=O)[C@H](CC(N)=O)NC(=O)[C@H](Cc3ccccc3)NC(=O)[C@H](C)NC(=O)[C@H](C)NC(=O)[C@H](CC(=O)O)NC(=O)[C@H](CC(=O)O)NC1=O)NC(=O)[C@H](CC(C)(C)C)NC(=O)[C@H](CC(=O)O)NC2=O (stereo partly drawn) [I-1826]
Result: 6.32

Query: Subsequent entry: CC(=O)N1CCC[C@]12CC=CCCCC1(CCCC=CCCCOC(=O)N3CC[C@@](C(=O)N[C@@H](Cc4ccsc4)C(=O)N[C@@H](Cc4csc5ccccc45)C(=O)N[C@@H](CCC(N)=O)C(N)=O)(C3)NC(=O)[C@H](CC(N)=O)NC(=O)[C@H](Cc3ccccc3)NC(=O)[C@H](C)NC(=O)[C@H](C)NC(=O)[C@H](CC(N)=O)NC(=O)[C@H](CC(C)C)NC1=O)NC(=O)[C@H](CC(C)(C)C)NC(=O)[C@H](CC(=O)O)NC2=O (stereo partly drawn) [I-1562]
Result: 5.30

====

So I've got a bunch of molecules here, and I need their IC50 values.
Target: full-length beta-Catenin (Uniprot ID P35222) (Homo sapiens, UniProt P35222)
Construct: 10 nM full-length beta-Catenin (Uniprot ID P35222)
Experiment: Fluorescence polarization IC50 (beta-catenin / 5FAM-TCF4 10-53 competition)
Format: binding
Settings: fluorescence polarization; read-out: beta-Catenin FP IC50
Form entry: enter the amount, then its unit.

Query: What IC50 value was documented for this molecule, CC(=O)N1CCC[C@]12CC=CCCCC1(CCCC=CCCCOC(=O)N3CC[C@@](C(=O)N[C@@H](Cc4ccccc4)C(=O)N[C@@H](Cc4csc5ccccc45)C(=O)N[C@@H](C)C(N)=O)(C3)NC(=O)[C@H](CC(N)=O)NC(=O)[C@H](Cc3ccccc3)NC(=O)[C@H](C)NC(=O)[C@H](CCCCNC(C)C)NC(=O)[C@H](CCC(N)=O)NC(=O)[C@H](CC(=O)O)NC1=O)NC(=O)[C@H](CC1CCCCC1)NC(=O)[C@H](CC(N)=O)NC2=O (some centres unmarked) [I-2065] ?
Result: 144 nM

Query: Subsequent entry: CC(=O)N1CCC[C@]12CC=CCCCC1(CCCC=CCCCOC(=O)N3CC[C@@](C(=O)N[C@@H](Cc4ccccc4Cl)C(=O)N[C@@H](Cc4csc5ccccc45)C(=O)N[C@H](C)C(N)=O)(C3)NC(=O)[C@H](CC(N)=O)NC(=O)[C@H](Cc3ccccc3)NC(=O)[C@H](C)NC(=O)[C@H](C)NC(=O)[C@H](Cc3cccc(C(=O)O)c3)NC(=O)[C@H](CC(=O)O)NC1=O)NC(=O)[C@H](CC(C)(C)C)NC(=O)[C@H](CC(=O)O)NC2=O (some centres unmarked) [I-2034]
Result: 18 nM

====

So I've got a bunch of compounds here, and I need their IC50 values.
Target: full-length beta-Catenin (Uniprot ID P35222) (Homo sapiens)
Construct: 10 nM full-length beta-Catenin (Uniprot ID P35222)
Test: Fluorescence polarization IC50 (beta-catenin / 5FAM-TCF4 10-53 competition)
Format: binding
Conditions: fluorescence polarization; read-out: beta-Catenin FP IC50
Form entry: enter the amount, then its unit.

Query: What IC50 value was documented for this compound, CC(=O)N1CCC[C@]12CC=CCCCC1(CCCC=CCCCOC(=O)N3CC[C@@](C(=O)N[C@@H](Cc4ccsc4)C(=O)N[C@@H](Cc4csc5ccccc45)C(=O)N[C@@H](CCC(N)=O)C(N)=O)(C3)NC(=O)[C@H](CC(C)C)NC(=O)[C@H](Cc3ccccc3)NC(=O)[C@H](CCN3CCC(F)(F)CC3)NC(=O)[C@H](C)NC(=O)[C@H](CC(=O)O)NC(=O)[C@H](CC(=O)O)NC1=O)NC(=O)[C@H](CC(C)(C)C)NC(=O)[C@H](CC(=O)O)NC2=O (stereo partly drawn) ?
Result: 39 nM

Query: Subsequent entry: CC(=O)N1CCC[C@]12CC=CCCCC1(CCCC=CCCCOC(=O)N3CC[C@@](C(=O)N[C@@H](Cc4ccccc4Cl)C(=O)N[C@@H](Cc4csc5ccccc45)C(=O)N[C@@H](CCC(N)=O)C(N)=O)(C3)NC(=O)[C@H]([C@@H](C)O)NC(=O)[C@H](Cc3ccccc3)NC(=O)[C@H](C)NC(=O)C(C)(C)NC(=O)[C@H](CN(CC(=O)O)CC(F)(F)F)NC(=O)[C@H](CC(=O)O)NC1=O)NC(=O)[C@H](CC(C)(C)C)NC(=O)[C@H](CC(=O)O)NC2=O (stereo partly drawn)
Result: 10 nM

Query: Subsequent entry: CC(=O)N1CCC[C@]12CC=CCCCC1(CCCC=CCCCOC(=O)N3CC[C@@](C(=O)N[C@@H](Cc4ccccc4)C(=O)N[C@@H](Cc4csc5ccccc45)C(=O)N[C@@H](C)C(N)=O)(C3)NC(=O)[C@H](CC(C)C)NC(=O)[C@H](Cc3ccccc3)NC(=O)[C@H](C)NC(=O)[C@H](CCCCNC(C)C)NC(=O)[C@H](CCC(N)=O)NC(=O)[C@H](CC(=O)O)NC1=O)NC(=O)[C@H](CC1CCCCC1)NC(=O)[C@H](CC(N)=O)NC2=O (stereo partly drawn)
Result: 211 nM

====

Molecular target: full-length beta-Catenin (Uniprot ID P35222) (Homo sapiens, UniProt P35222)
Construct: 10 nM full-length beta-Catenin (Uniprot ID P35222)
Test: Fluorescence polarization IC50 (beta-catenin / 5FAM-TCF4 10-53 competition)
Type: binding
Settings: read-out: FP EC50
ASSAY_ENDPOINT: IC50 (nM)
// return numeric value only (unit: nM, not printed)

Query: For the record CC(=O)N1CCC[C@]12CC=CCCCC1(CCCC=CCCCCCC[C@@](C)(C(=O)N[C@@H](Cc3ccccc3)C(=O)N[C@@H](Cc3csc4ccccc34)C(=O)N[C@@H](CCC(N)=O)C(=O)NC(C)(C)C(N)=O)NC(=O)[C@H](CC(N)=O)NC(=O)[C@H](Cc3ccccc3)NC(=O)[C@H](C)NC(=O)[C@H](C)NC(=O)[C@H](CCC(=O)O)NC(=O)[C@H](CC(=O)O)NC1=O)NC(=O)[C@H](CC(C)C)NC(=O)[C@H](CC(=O)O)NC2=O (stereo partly drawn) , what value of IC50 is listed for full-length beta-Catenin (Uniprot ID P35222) (Homo sapiens, UniProt P35222)?
Result: 440

Query: Subsequent entry: CC[C@H](C)[C@@H]1NC(=O)[C@H](CC(=O)O)NC(=O)[C@]2(CC=CCCCC3(CCCC=CCCCCCC[C@@](C)(C(=O)N[C@@H](Cc4ccccc4)C(=O)N[C@@H](Cc4csc5ccccc45)C(=O)N[C@@H](CCC(N)=O)C(N)=O)NC(=O)[C@H](CCC(N)=O)NC(=O)[C@H](Cc4ccccc4)NC(=O)[C@H](C)NC(=O)[C@H](C)NC(=O)[C@H](CCC(=O)O)NC(=O)[C@H](CC(=O)O)NC3=O)NC1=O)CCCN2S(C)(=O)=O (stereo partly drawn) [I-711]
Result: 88

Query: Subsequent entry: CC[C@H](C)[C@@H]1NC(=O)[C@H](CC(=O)O)NC(=O)[C@]2(CC=CCCCC3(CCCC=CCCCCCC[C@@](C)(C(=O)N[C@@H](Cc4ccccc4)C(=O)N[C@@H](Cc4csc5ccccc45)C(=O)N[C@@H](CCC(N)=O)C(N)=O)NC(=O)[C@H](CCC(N)=O)NC(=O)[C@H](Cc4ccccc4)NC(=O)[C@H](Cc4c[nH]c5ccccc45)NC(=O)[C@H](C)NC(=O)[C@H](CCC(=O)O)NC(=O)[C@H](CC(=O)O)NC3=O)NC1=O)CCCN2C(C)=O (stereo partly drawn) [I-665]
Result: 923
